So I've got a bunch of compounds here, and I need their GI50 values.
# System: SF-295
# methodNotes: NCI tumour cell line growth inhibition, 48 h
Active and inactive are the calls of the source. Cut-off read from the data, not from the text of the source: active = GI50 up to about 1.1 µM and inactive = higher.

Examples with their reported GI50 follow.
{"compound": "c1cc(C2=NCCO2)c2ccsc2c1", "measurement": "> 100 µM (inactive)"}
{"compound": "C=CCNC(=O)NCCCC(NC(C)=O)C(=O)NCc1ccccc1 (stereo not drawn)", "measurement": "> 100 µM (inactive)"}
{"compound": "Cc1[nH]n(-c2ncc(C#N)c(=O)[nH]2)c(=O)c1CCO", "measurement": "> 100 µM (inactive)"}
{"compound": "O=c1oc2ccc(Cl)cc2cc1-c1cn2ccsc2n1", "measurement": "29.2 µM (inactive)"}
{"compound": "O=c1[nH]c2ccccc2c2nc3ccccc3n12", "measurement": "62.4 µM (inactive)"}

Record GI50 per entry; entries follow.
1. Cc1cc([N+](=O)[O-])c(S(=O)(=O)c2ccccc2)c([N+](=O)[O-])c1
2. O=C1C=CC(=O)c2c1ccc1c3ccccc3n(CCCCCCCCCCCCn3c4ccccc4c4ccc5c(c43)C(=O)C=CC5=O)c21
3. CCOC(=O)CSc1[nH]c(NC(=S)Nc2ccccc2)c(C(N)=O)c1C(N)=O

1. 18.8 µM (inactive)
2. > 100 µM (inactive)
3. > 10 µM (inactive)
